# TEST_SYSTEM: Tyrosine-protein kinase FRK (Homo sapiens);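 note: values are mean inhibition of PTK5 (FRK) kinase activity from the GSK PKIS screening set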
# EXPERIMENTAL_PARAMETERS: at 0.1 µM
PARAMETER: inhibition (%)
Give the value, in units of %, as a plain number.

| INPUT_SMILES | inhibition, % |
| --- | --- |
| C[C@@H](Oc1cc(-n2cnc3ccc(OCC4CCN(C)CC4)cc32)sc1C(N)=O)c1ccccc1C(F)(F)F | -0.4 |

**Q:** // Input: Cc1ccc(Nc2ccnc(Nc3cccc(C(N)=O)c3)n2)cc1O . Output its inhibition only.
**A:** 48.6

**Q:** // Input: Cc1ccc(NC(=O)CC2CC2)cc1-c1ccc(C(=O)NCC2CC2)cc1 . Output its inhibition only.
**A:** 2.5

###

# TEST_SYSTEM: Serine/threonine-protein kinase D1 (Homo sapiens);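 note: values given as mean inhibition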
# EXPERIMENTAL_PARAMETERS: at 0.1 µM
PARAMETER: inhibition (%)
Give the value, in units of %, as a plain number.

Some solved entries appear below for comparison.
| INPUT_SMILES | TEST_SYSTEM | inhibition (%) |
| --- | --- | --- |
| Nc1nccc(-c2c(-c3ccc(F)cc3)nn3cc(C(F)(F)F)ccc23)n1 | Serine/threonine-protein kinase D1 (Homo sapiens) | 0.77 |
| CC(C)c1ccc2c(c1)NC(=O)/C2=N/Nc1ccc(S(N)(=O)=O)cc1 | Serine/threonine-protein kinase D1 (Homo sapiens) | 0.07 |

**Q:** // Input: CN(C)c1cc2c(Nc3ccc4c(cnn4Cc4ccccc4)c3)ncnc2cn1 . Output its inhibition only.
**A:** 2.68

**Q:** // Input: COc1cc2ncnc(Nc3ccc(C)c(O)c3)c2cc1OC . Output its inhibition only.
**A:** 4.73

###

Recorded inhibition values for a group of molecules are listed next.
# TEST_SYSTEM: Dual specificity mitogen-activated protein kinase kinase 1 (Homo sapiens);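 note: values reported are mean inhibition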
# EXPERIMENTAL_PARAMETERS: at 1 µM
Give the value, in units of %, as a plain number.

**Q:** // Input: CCn1c(-c2nonc2N)nc2ccc(F)cc21 . Output its inhibition only.
**A:** 7.03

**Q:** // Input: CS(=O)(=O)CCNCc1nc(-c2ccc3ncnc(Nc4ccc(OCc5cccc(C(F)(F)F)c5)cc4)c3c2)cs1 . Output its inhibition only.
**A:** 0.13

**Q:** // Input: OCc1ccc(-c2nc(-c3ccccn3)c(-c3ccc4c(c3)OCO4)[nH]2)cc1 . Output its inhibition only.
**A:** 4.13

**Q:** // Input: COc1cc2ncn(-c3cc(OCc4ccccc4S(C)(=O)=O)c(C#N)s3)c2cc1OC . Output its inhibition only.
**A:** 7.23

**Q:** // Input: CN1CCN(C(=O)c2ccc(NC(=O)Nc3ccc(N(C)c4ccnc(Nc5ccc(CS(C)(=O)=O)cc5)n4)cc3)cc2)CC1 . Output its inhibition only.
**A:** 10.8

###

# TEST_SYSTEM: Mitogen-activated protein kinase 1 (Homo sapiens);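 note: values are mean inhibition, from the GSK PKIS collection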
# EXPERIMENTAL_PARAMETERS: at 1 µM
Recorded inhibition values for a group of compounds are listed next.
Give the value, in units of %, as a plain number.

Some solved entries appear below for comparison.
| INPUT_SMILES | UNIT_STRING | inhibition |
| --- | --- | --- |
| Cc1ccc(NC(=O)CC2CC2)cc1-c1ccc(C(=O)NCC2CC2)cc1 | % | 3.96 |
| COc1cccc(-n2ncc3c(N/N=C/c4ccc(C)cc4)ncnc32)c1 | % | 7.67 |
| Cc1cc(O)cc(C)c1/C=C/c1cncc(C(=O)N(C)C)c1 | % | 2.51 |
| Cc1ccc(C(=O)NC2CC2)cc1-c1ccc2[nH]ncc2c1 | % | -5.22 |
| OCc1ccc(-c2nc(-c3ccccn3)c(-c3ccc4c(c3)OCO4)[nH]2)cc1 | % | 3.7 |
| ON=C1CCc2cc(-c3nc(C4CCNCC4)[nH]c3-c3ccncc3)ccc21 | % | 1.85 |

**Q:** // Input: C[C@@H](Oc1cc(-n2cnc3ccc(OC[C@@H](O)CO)cc32)sc1C(N)=O)c1ccccc1Cl . Output its inhibition only.
**A:** -1.64

**Q:** // Input: CN(C)CCCn1c(-c2nonc2N)nc2cnccc21 . Output its inhibition only.
**A:** 4.9

**Q:** // Input: CCS(=O)(=O)c1ccc(OC)c(Nc2nccc(N(C)c3ccc4c(C)n[nH]c4c3)n2)c1 . Output its inhibition only.
**A:** 5.64

**Q:** // Input: COc1cc2ncnc(Nc3ccc(C)c(O)c3)c2cc1OC . Output its inhibition only.
**A:** 7.98

**Q:** // Input: NS(=O)(=O)c1ccc(Nc2cc(-c3cccc(O)c3)n[nH]2)cc1 . Output its inhibition only.
**A:** 4.96

**Q:** // Input: Cc1cc(Cl)cc2c1NC(=O)C2=NNc1ccc(S(N)(=O)=O)cc1 . Output its inhibition only.
**A:** 2.74

**Q:** // Input: NC(=O)c1sc(-n2cnc3ccccc32)cc1OCc1ccccc1Br . Output its inhibition only.
**A:** 5.56

**Q:** // Input: COc1ccc(-c2nn3ncccc3c2-c2ccnc(Nc3cccc(C(F)(F)F)c3)n2)cc1 . Output its inhibition only.
**A:** 5.12

**Q:** // Input: COc1cccc(-n2nc(C)c3c(N/N=C(\C)c4ccncc4)ncnc32)c1 . Output its inhibition only.
**A:** 1.42

**Q:** // Input: Cc1nc(-c2ccccc2)n2nc(NCCCN3CCOCC3)ncc12 . Output its inhibition only.
**A:** 6.13

**Q:** // Input: Nc1nccc(-c2c(-c3ccc(F)cc3)ncn2CCCN2CCOCC2)n1 . Output its inhibition only.
**A:** 4.64

**Q:** // Input: COC(=O)c1ccc2c(c1)C(=Cc1cc(Br)c(O)c(Br)c1)C(=O)N2 . Output its inhibition only.
**A:** 6.19

**Q:** // Input: COc1cc2ncnc(Nc3ccc4c(cnn4Cc4ccccc4)c3)c2cc1OC . Output its inhibition only.
**A:** 4.22

**Q:** // Input: COc1cc(Nc2nccc(-c3cnn4ncccc34)n2)cc(OC)c1 . Output its inhibition only.
**A:** 19.7

**Q:** // Input: [O-][S+]1CCN(Cc2ccc(-c3ccc4ncnc(Nc5ccc(OCc6ccccc6)c(Cl)c5)c4c3)o2)CC1 . Output its inhibition only.
**A:** 4.09

###

# TEST_SYSTEM: Tyrosine-protein kinase SYK (Homo sapiens) (UniProt P43405)
# EXPERIMENTAL_PARAMETERS: at 1 µM
# Description: GSK_PKIS: SYK mean inhibition at 1 uM [Nanosyn]
Recorded inhibition values for a group of compounds are listed next.
Give the value, in units of %, as a plain number.

| INPUT_SMILES | UNIT_STRING | RESULT_NUMBER |
| --- | --- | --- |
| CN(C)CCCn1c(-c2nonc2N)nc2cnccc21 | % | 0.37 |
| CN(C)C(=O)O[C@H]1CN[C@H](C#Cc2cc3ncnc(Nc4ccc(OCc5cccc(F)c5)c(Cl)c4)c3s2)C1 | % | -0.76 |
| CCS(=O)(=O)c1ccc(OC)c(Nc2nccc(N(C)c3ccc4c(C)n[nH]c4c3)n2)c1 | % | -6.17 |
| CC(C)c1ccc(Nc2nccc(-c3cnn4ncccc34)n2)cc1 | % | 9.02 |

Let us examine a further case.
**Q:** // Input: NS(=O)(=O)c1cccc(Nc2cc(-c3ccc(F)cc3)n[nH]2)c1 . Output its inhibition only.
**A:** -1

###

# TEST_SYSTEM: Casein kinase II subunit alpha (Homo sapiens) (UniProt P68400);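 note: reported value is the mean CK2 inhibition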
# Sequence (P68400 whole entry, looked up): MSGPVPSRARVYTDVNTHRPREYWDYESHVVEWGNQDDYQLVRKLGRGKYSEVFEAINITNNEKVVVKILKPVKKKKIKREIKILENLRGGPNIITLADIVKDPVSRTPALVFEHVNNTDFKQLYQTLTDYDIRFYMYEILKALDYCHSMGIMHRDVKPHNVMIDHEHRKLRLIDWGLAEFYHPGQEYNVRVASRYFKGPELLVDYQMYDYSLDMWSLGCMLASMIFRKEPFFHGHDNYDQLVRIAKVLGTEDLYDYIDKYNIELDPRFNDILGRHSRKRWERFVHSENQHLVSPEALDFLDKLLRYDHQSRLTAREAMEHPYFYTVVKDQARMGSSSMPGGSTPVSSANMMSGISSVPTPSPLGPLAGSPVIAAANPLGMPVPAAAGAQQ
# EXPERIMENTAL_PARAMETERS: at 1 µM
PARAMETER: inhibition (%)
Give the value, in units of %, as a plain number.

Some solved entries appear below for comparison.
| INPUT_SMILES | PARAMETER | RESULT_NUMBER |
| --- | --- | --- |
| Cc1ccc2c(c1)/C(=N/Nc1ccc(S(N)(=O)=O)cc1)C(=O)N2 | inhibition | -4.47 |
| ON=C1CCc2cc(-c3nc(C4CCNCC4)[nH]c3-c3ccncc3)ccc21 | inhibition | -3.6 |
| Nc1nccc(-c2c(-c3ccc(F)cc3)ncn2CCCN2CCOCC2)n1 | inhibition | 4.35 |
| CS(=O)(=O)CCNCc1nc(-c2ccc3ncnc(Nc4ccc(OCc5cccc(C(F)(F)F)c5)cc4)c3c2)cs1 | inhibition | 1.3 |
| C[C@@H](Oc1cc(-n2cnc3ccc(OC[C@@H](O)CO)cc32)sc1C(N)=O)c1ccccc1Cl | inhibition | 10.2 |
| Nc1nccc(C#Cc2cncnc2Nc2ccc(OCc3cccc(F)c3)c(Cl)c2)n1 | inhibition | 2.69 |
| CCn1c(-c2nonc2N)nc2c(C#CC(C)(C)O)nc(OCCNC)cc21 | inhibition | 3.67 |
| COc1ccc2ncnc(Nc3ccc(OCc4ccccc4)cc3)c2c1 | inhibition | 7.23 |

**Q:** // Input: COc1ccc(-c2nn3ncccc3c2-c2ccnc(Nc3cccc(C(F)(F)F)c3)n2)cc1 . Output its inhibition only.
**A:** 1.12

**Q:** // Input: COC(=O)c1cncc(/C=C/c2c(C)cc(O)cc2C)c1 . Output its inhibition only.
**A:** 11.9
